# target.or.test.system: strychnine insensitive glycine binding site located on the NMDA receptor complex (Rattus norvegicus)
# assay.overview: affinity for strychnine insensitive glycine binding site located on the NMDA receptor complex (procedure of Kishimoto H. et al)
Structures can show the parent of a compound that is named as a salt.
readout.type: Ki (nM)

CN(C)C(=O)Nc1ccc(NC(=O)/C=C/c2c(C(=O)O)[nH]c3cc(Cl)cc(Cl)c23)cc1    3.89

1: O=C(/C=C/c1c(C(=O)O)[nH]c2cc(Cl)cc(Cl)c12)Nc1ccc(NC(=O)NC2CCOCC2)cc1 [Example 52, sodium salt]
2: NC(=O)NCc1ccc(NC(=O)/C=C/c2c(C(=O)O)[nH]c3cc(Cl)cc(Cl)c23)cc1
Incoming: # min-compare on Ki between 1 and 2 Pick one; state its label.
Outgoing: 2
(2: 2.51 nM, 1: 5.01 nM)

Just for reference, patent US5919811A is where these values come from.
